Tested on: polyclonal antibodies specific for human PCSK9 aa 153-162 or aa 153-165
Assay: Binding ELISA: mimotopes coated on plates, detected by mouse sera raised against the original PCSK9 sequence
Settings: mimotope coated at 1 μmol/mL; titer = serum dilution where 50% of ODmax is reached
endpoint: Median Titer Binding ELISA (ODmax/2)

Some substances with known Median Titer Binding ELISA (ODmax/2) results, for comparison:
57 (SVPWNLERLT; Artificial Sequence, Mimotope) [compound 57] : 154,000
24 (SIPWDLERITPPR; Artificial Sequence, Mimotope) [compound 24] : 231,000

Now let's try a different one.
Lookup result for 51 (SIPWNLERITPPS; Artificial Sequence, Mimotope) [compound 51] ; measured Median Titer Binding ELISA (ODmax/2): 149,000

----------
Tested on: polyclonal antibodies specific for human PCSK9 aa 153-162 or aa 153-165
Experiment: Binding ELISA: mimotopes coated on plates, detected by mouse sera raised against the original PCSK9 sequence
Conditions: mimotope coated at 1 μmol/mL; titer = serum dilution where 50% of ODmax is reached
From the text: FIGS. 1A and 1B show detection of PCSK9 mimotopes sequences by mouse sera containing polyclonal antibodies specific for human PCSK9 aa 153-162 or aa 153-165 The graphs display median titers from all mimotopes compared to the irrelevant negative control. As a positive control the original human PCSK9 sequence is included: aa 153-162 or aa 153-165. Mimotopes with values over 1:50.000 are considered as good candidates. Mimotopes were coated on ELISA plates at a concentration of 1 μmol/mL. […]
endpoint: Median Titer Binding ELISA (ODmax/2)

Some substances with known Median Titer Binding ELISA (ODmax/2) results, for comparison:
66 (SIPWSLERIL; Artificial Sequence, Mimotope) [compound 66] : 199,000
20 (SIPSNLERIT; Artificial Sequence, Mimotope) [compound 20] : 22,000
30 (SIPWNVERITPPR; Artificial Sequence, Mimotope) [compound 30] : 197,000
35 (SIPWNLEDIT; Artificial Sequence, Mimotope) [compound 35] : 48,000
7 (AIPWNLERIT; Artificial Sequence, Mimotope) [compound 7] : 199,000

Per the reported polyclonal antibodies specific for human PCSK9 aa 153-162 or aa 153-165 data, 52 (SIPWNLERITPPL; Artificial Sequence, Mimotope) [compound 52] has Median Titer Binding ELISA (ODmax/2) of 139,000

Per the reported polyclonal antibodies specific for human PCSK9 aa 153-162 or aa 153-165 data, 43 (SIPWNLERITAPR; Artificial Sequence, Mimotope) [compound 43] has Median Titer Binding ELISA (ODmax/2) of 226,000

Per the reported polyclonal antibodies specific for human PCSK9 aa 153-162 or aa 153-165 data, 62 (SQPWNLERIL; Artificial Sequence, Mimotope) [compound 62] has Median Titer Binding ELISA (ODmax/2) of 196,000

Per the reported polyclonal antibodies specific for human PCSK9 aa 153-162 or aa 153-165 data, 68 (VQPWSLERTL; Artificial Sequence, Mimotope) [compound 68] has Median Titer Binding ELISA (ODmax/2) of 95,000

Per the reported polyclonal antibodies specific for human PCSK9 aa 153-162 or aa 153-165 data, 6 (VIPWNLERIT; Artificial Sequence, Mimotope) [compound 6] has Median Titer Binding ELISA (ODmax/2) of 12,000

Per the reported polyclonal antibodies specific for human PCSK9 aa 153-162 or aa 153-165 data, 73 (SVPWSLERLT; Artificial Sequence, Mimotope) [compound 73] has Median Titer Binding ELISA (ODmax/2) of 251,000

Per the reported polyclonal antibodies specific for human PCSK9 aa 153-162 or aa 153-165 data, 27 (SIPWNYERIT; Artificial Sequence, Mimotope) [compound 27] has Median Titer Binding ELISA (ODmax/2) of 115,000

Per the reported polyclonal antibodies specific for human PCSK9 aa 153-162 or aa 153-165 data, 23 (SIPWQLERITPPR; Artificial Sequence, Mimotope) [compound 23] has Median Titer Binding ELISA (ODmax/2) of 224,000

Source listed as patent US9999659B2.
